- Test system: SNB-19 CNS
- ASSAY_NOTES: NCI tumour cell line growth inhibition, 48 h
For each of the molecules below, state its GI50.

Count: 2. Required value per item: GI50.
1. O=C(c1nn(-c2ccc(Cl)cc2)cc1O)n1nc(C(F)(F)F)cc1-c1ccccc1
2. O=C(Nc1ccc(Oc2ccc(NC(=O)Nc3ccc([N+](=O)[O-])cc3)cc2)cc1)Nc1ccc([N+](=O)[O-])cc1

[out]
1: 3.98 µM; 2: 3.34 µM

Count: 7. Required value per item: GI50.
1. COc1cc(-c2nc3cc(Cl)c(Cl)cc3[nH]2)ccc1OCC(=O)N=Nc1c(O)[nH]c2ccc(Cl)cc12
2. O=C(Cc1ccc(Nc2ccnc(C(F)(F)F)c2)cc1)Nc1cc(Cl)ccc1O
3. COc1cc(-c2nc(-c3ccc(-c4nc5ccc(F)cc5[nH]4)cc3)no2)cc(OC)c1OC
4. O=C(Cn1c(C(=O)c2ccc(Cl)cc2)nc(-c2ccccc2)c1-c1ccccc1)c1ccc(Cl)cc1
5. COc1ccc(/C=N\NC(=O)c2ccc3nc(-c4ccc(Cl)cc4)[nH]c3c2)cc1
6. COc1ccc(-n2cc(-c3cc(OC)c(OC)c(OC)c3)[nH]c2=S)cc1Cl
7. COc1ccc2c(c1)[nH]c(=O)c1c3cc(OC)c(OC)cc3cn21

[out]
1. 0.447 µM
2. 5.31 µM
3. 5.62 µM
4. > 100 µM
5. 3.13 µM
6. 19.5 µM
7. 0.016 µM

====

- Tested on: HCC-2998 colon
- ASSAY_NOTES: NCI tumour cell line growth inhibition, 48 h
MEASUREMENT_LABEL: TGI

The following compounds have reported results that may help.
{"columns": ["COMPOUND", "EXPERIMENTAL_SYSTEM", "TGI"],
 "data": [
  ["O=C(CCN1CCCC1)Nc1ccc2c(NCCc3ccccc3)c3ccccc3nc2c1", "HCC-2998 colon", "1.98 µM"],
  ["CN(C)CCNC(=O)c1c2ccccc2cc2ccccc12", "HCC-2998 colon", "> 100 µM"],
  ["O=C(N[C@H]1CCC[C@H]1C(=O)Nc1ccc(C(F)(F)F)cc1)OCc1ccccc1", "HCC-2998 colon", "> 100 µM"],
  ["CN(/N=C/c1ccc(Cl)cc1)C1=NCCCCN1", "HCC-2998 colon", "> 100 µM"],
  ["COc1cc([C@@H]2c3cc4c(cc3[C@@H](c3c(O)cc(O)c5c3O[C@H](c3ccc(O)c(O)c3)[C@H](OC(=O)c3cc(O)c(O)c(O)c3)C5)[C@H]3COC(=O)[C@H]23)OCO4)cc(OC)c1O", "HCC-2998 colon", "92.3 µM"]
]}

Count: 6. Required value per item: TGI.
1. Cn1cnc(SC2=C3C(=O)C=C4S[C@H]5C[C@]42c2c(c(O)c4c6c2=[N+]3CCC=6C=N4)N5)c1CC(N)C(=O)O (some centres not stated)
2. CCOC(=O)C1=C(c2ccccc2)C12N(Cc1ccccc1)C(=O)C2(c1ccccc1)c1ccccc1 (configuration not stated)
3. O=C1C=C(O)c2c(O)ccc(O)c2C1=O
4. NC(=O)c1sc(-n2cnc3ccc(C(F)(F)F)cc32)cc1OCc1ccccc1Br
5. CC(O)C(NC(=O)c1ccccc1)C(=O)N(Cc1ccccc1)Cc1ccccc1 (configuration not stated)
6. COc1ccc(N=Nc2c(-c3ccccc3)nn(C(=O)CC(=O)Nc3ccccc3Cl)c2-c2ccccc2)cc1

[out]
["29.8 µM", "90.3 µM", "> 100 µM", "> 23.1 µM", "> 100 µM", "> 100 µM"]

====

- Tested on: ACHN renal
- ASSAY_NOTES: NCI tumour cell line growth inhibition, 48 h
For each of the compounds below, state its TGI.

The following compounds have reported results that may help.
{"columns": ["COMPOUND", "DATA_VALUE"],
 "data": [
  ["O=c1ccn(C2(CO)C=C(CO)C(O)C2O)c(=O)[nH]1 (configuration not stated)", "> 25.7 µM"],
  ["Cc1ccc(N=C2SC(=NN(C)C)SC2=Nc2ccc(C)cc2)cc1", "> 100 µM"],
  ["Cn1nc2ccc3nccc(NCCNCCO)c3c2n1", "> 100 µM"],
  ["O=C1NC(=O)[C@@H](c2c[nH]c3ccccc23)[C@@H]1c1c[nH]c2ccccc12", "> 25 µM"],
  ["COc1ccc(-c2nc(-c3ccccn3)c(-c3ccccn3)n2CC(C)C)cc1OC1CCCC1", "> 165 µM"]
]}

Count: 8. Required value per item: TGI.
1. CC(O)C(NC(=O)c1ccccc1)C(=O)N(Cc1ccccc1)Cc1ccccc1 (configuration not stated)
2. O=C(c1ccco1)c1nc2cc(C(F)(F)F)ccc2[n+]([O-])c1C(F)(F)F
3. CC(C)C[CH2][Ge]([CH2]CC(C)C)([CH2]CC(C)C)[CH2]CC(C)C
4. C[N+](C)(C)CC(=O)N/N=C(/Cc1nc2ccc([N+](=O)[O-])cc2[nH]c1=O)C(=O)Nc1cc(C(F)(F)F)ccc1Cl
5. O=C1c2cc3c(cc2CC1Cc1ccc2c(c1)CCC2)CCC3 (configuration not stated)
6. Cc1ccc(/C=C/C(=O)c2ccc([N+](=O)[O-])cc2)cc1
7. S=C(N/N=C(\C(=N/NC(=S)N1CCCCC1)c1ccccn1)c1ccccn1)N1CCCCC1
8. CCOC(OCC)C(CC)[Se]c1ccccc1 (configuration not stated)

[out]
> 100 µM
> 100 µM
> 100 µM
> 100 µM
> 100 µM
> 100 µM
91.6 µM
> 100 µM

Count: 4. Required value per item: TGI.
1. Cc1ccc2nc3c(n2c1)C(=O)C(=O)c1ccccc1-3
2. COc1cc(-c2nc3cc(Cl)c(Cl)cc3[nH]2)ccc1OCC(=O)N=Nc1c(O)[nH]c2ccc(Cl)cc12
3. O=C(NN1C(=O)C(Cl)C1c1ccccc1Cl)c1ccccc1O (configuration not stated)
4. COc1cc(C(O)C(=O)c2cnc3cc([N+](=O)[O-])ccc3n2)ccc1O (configuration not stated)

[out]
0.88 µM
> 100 µM
> 100 µM
> 100 µM

====

- Tested on: UACC-62 melanoma
- ASSAY_NOTES: NCI tumour cell line growth inhibition, 48 h
For each of the compounds below, state its TGI.

{"columns": ["COMPOUND", "EXPERIMENTAL_SYSTEM", "TGI"],
 "data": [
  ["O=C(c1ccco1)c1nc2cc(C(F)(F)F)ccc2[n+]([O-])c1C(F)(F)F", "UACC-62 melanoma", "> 100 µM"],
  ["COc1cccc([C@@H]2CC(=O)c3cc4c(cc3N2)OCO4)c1", "UACC-62 melanoma", "> 100 µM"],
  ["O=C(O)c1cn(C2CC2)c2cc(N3CCNCC3)c(F)cc2c1=O", "UACC-62 melanoma", "> 100 µM"],
  ["Nc1ccccc1OCCCOc1ccccc1N", "UACC-62 melanoma", "> 100 µM"],
  ["CCOc1ccc(NCC2CC/C(=C\\c3ccc(Cl)cc3)C2=O)cc1 (stereo not given)", "UACC-62 melanoma", "> 64.3 µM"],
  ["O=C1O[C@H]2C3C4CCC(C4[C@@H]2I)[C@H]13 (stereo not given in full)", "UACC-62 melanoma", "> 100 µM"],
  ["Cn1c(COC(=O)NC2CCCCC2)c(COC(=O)NC2CCCCC2)c2ccc3cc(C=O)ccc3c21", "UACC-62 melanoma", "> 100 µM"],
  ["COc1ccc(-c2nnc(SCC(=O)Nc3ccc(C(=O)/C=C/c4cc(OC)c(OC)c(OC)c4)cc3)n2-c2ccccc2)cc1OC", "UACC-62 melanoma", "> 10 µM"],
  ["CN(C)C(=S)/N=c1\\ss/c(=N\\C(=S)N(C)C)n1Cc1ccco1", "UACC-62 melanoma", "> 100 µM"]
]}

Continue with the next compound.
[in] # lookup: TGI of CCn1c(=O)c2c3ccc(OC)cc3[nH]c2c2ccc(OC)cc21
[out] > 100 µM

====

For each of the molecules below, state its TGI.
- Test system: CAKI-1 renal
- ASSAY_NOTES: NCI tumour cell line growth inhibition, 48 h

{"columns": ["MOLECULE", "EXPERIMENTAL_SYSTEM", "MEASUREMENT_LABEL", "DATA_VALUE"],
 "data": [
  ["OCC(O)COc1c(Cl)cc(Cl)cc1Cl (centres undefined)", "CAKI-1 renal", "TGI", "> 100 µM"]
]}

Count: 6. Required value per item: TGI.
1. CC(O)C(NC(=O)c1ccccc1)C(=O)N(Cc1ccccc1)Cc1ccccc1 (centres undefined)
2. COc1ccccc1NC(=O)C1=C(C)NC(C)=C(C(=O)Nc2ccccc2OC)C1c1cccc2ccccc12
3. C=CCOCn1ccc(N)nc1=O
4. O=NN1C(c2ccccc2)CCCC1c1ccccc1 (centres undefined)
5. O=C(Cn1c(C(=O)c2ccc(Cl)cc2)nc(-c2ccccc2)c1-c1ccccc1)c1ccc(Cl)cc1
6. CCOC(=O)c1ccccc1SC(C[N+](=O)[O-])c1ccccc1 (centres undefined)

[out]
49.9 µM
> 100 µM
> 100 µM
> 100 µM
> 100 µM
31.2 µM

Count: 3. Required value per item: TGI.
1. O=C(NNS(=O)(=O)c1ccccc1)c1csc(NC(=S)NC2CCCCC2)n1
2. O=C(O)c1cn(C2CC2)c2cc(N3CCNCC3)c(F)cc2c1=O
3. CN(C)CC1CCCc2ccccc2C1=O (centres undefined)

[out]
["61.4 µM", "> 100 µM", "6.25 µM"]

Count: 4. Required value per item: TGI.
1. NCCS(=O)(=O)O
2. O=C(/C=C/c1ccccc1O)c1cccc2ccccc12
3. CCn1c(=O)c2c3ccc(OC)cc3[nH]c2c2ccc(OC)cc21
4. O=C(Nc1ccc(Nc2ccncc2)cc1)c1ccc(Nc2ccnc3ccc([N+](=O)[O-])cc23)cc1[N+](=O)[O-]

[out]
> 100 µM
> 100 µM
> 100 µM
> 83.2 µM
